Hello, the source for this data is paper PMC5540273, in case you need it.

- Tested on: LIMK2
- EXPERIMENTAL CONTEXT: concentration: 1 μM, replicates: in singlicate; n = 1
Please respond with reported %Inh for every item in the list.
Numbers only, in %.

COC(=O)c1c(-c2ccccc2)c2cc(C(=O)O)ccc2c(=O)n1Cc1ccccc1: 0
O=C(Nc1n[nH]c2nc(-c3nccs3)c(Br)cc12)C1CCCC1: 0
Cl.NC(=O)c1cccc(Nc2nccc(Nc3ccc(Oc4cccc(Cl)c4)c(Cl)c3)n2)c1: 4
COc1ccc(C2=C(Nc3cccc(C(=O)O)c3)C(=O)NC2=O)cc1: 0
Cc1nnc(-c2ccc3occ(-c4ccc(S(C)=O)cc4)c3c2)[nH]1 (stereo not drawn): 0

Consider the record given below.
Entry under review: Cc1ccccc1-n1cnc2c(N)ncnc21 . Reported %Inh? 15

###

Please respond with reported %Inh for every item in the list.
- Test system: TYK2(JH2domain-pseudokinase)
- EXPERIMENTAL CONTEXT: concentration: 1 μM, replicates: in singlicate; n = 1
Give bare numbers, in %.

Cl.O=C(Nc1cccc(-c2nn3ncccc3c2-c2ccnc(Nc3cccnc3)n2)c1)c1c(F)cccc1F [GSK312879]: 19
Cl.NC(=O)c1cccc(Nc2nccc(Nc3ccc(Oc4cccc(Cl)c4)c(Cl)c3)n2)c1 [GW659008]: 18
CC(=O)Nc1nc2cnc(Nc3cc(NC(=O)c4cccc(CCC#N)c4)ccc3C)nc2s1: 27
Cc1ccc(NC(=O)Nc2cc(C(C)(C)C)nn2-c2ccccc2)cc1 [GSK1014915]: 4
Clc1cc(Cl)cc(Nc2ccnc(Nc3cc(Cl)cc(Cl)c3)n2)c1 [GSK175726]: 0

The following compounds each have a reported value; give each one's %Inh.
1. COc1ccc(C2=C(Nc3cccc(C(=O)O)c3)C(=O)NC2=O)cc1 [SB-390765]
2. O=C(Nc1ccc2c(c1)OCO2)NC1CCN(c2ccnc(Nc3ccc(F)cc3)n2)C1 (stereo not shown) [GSK1379724]
3. COC(=O)c1c(-c2ccccc2)c2cc(OC)ccc2c(=O)n1Cc1ccccc1
4. Cc1csc(-c2nc(Nc3ccncc3)c3ccccc3n2)n1 [GW869640]
5. COc1ccc(Nc2nccc(NCCNC(=O)Nc3ccccc3F)n2)cc1 [GSK1379901]

1. 0
2. 33
3. 0
4. 83
5. 28

###

- Tested on: LZK
- Construct: gene MAP3K13
pKd: −log10 of the molar value.
REPORTED METRIC: pKd

Entry under review: O=C(Nc1n[nH]c2cc(-c3cccc(F)c3F)ccc12)C1CC1 . Reported pKd? < 5.00

###

- System: ADCK4
pKd: −log10 of the molar value.
REPORTED METRIC: pKd

Entry under review: CCn1c(-c2cccnc2O)nc2cnccc21 . Reported pKd? < 5.00

###

Please respond with reported %Inh for every item in the list.
- Test system: MARK4
- EXPERIMENTAL CONTEXT: concentration: 1 μM, replicates: in singlicate; n = 1
One number for each entry, in %.

COc1ccc(C2=C(Nc3cccc(C(=O)O)c3)C(=O)NC2=O)cc1: 0

The following compounds each have a reported value; give each one's %Inh.
1. O=C(Nc1ccc2c(c1)OCO2)NC1CCN(c2ccnc(Nc3ccc(F)cc3)n2)C1 (centres unmarked)
2. CCn1c(-c2ccccn2)nc2cnccc21
3. Fc1cc(Cl)ccc1Nc1ccnc2cc(-c3ccc(CN4CCCCC4)o3)ccc12
4. Cc1cccc(-c2nc(C)cc(Nc3ccncc3)n2)n1

1. 0
2. 8
3. 0
4. 0
